- System: SN12C renal
- PROCEDURE_TEXT: NCI tumour cell line growth inhibition, 48 h
Overview of recorded TGI for various compounds
Unit µM implied. Number only.

Solved entries:
O=[n+]1c(CBr)c(CBr)n([O-])c2ccccc21 | 24.3
C[Si](C)(C)c1ccc(CC2(Cc3ccc([Si](C)(C)C)cc3)CCNC2)cc1 | 3.11
CC1=C[C@@H]2Cc3occc3C(C)(C)[C@@H]2CC1 | 29.8
COc1cc2c(cc1O)[C@H](Cc1ccc(Oc3cc(C[C@H]4c5cc(OC)c(OC)cc5CCN4C)ccc3OC)cc1)NCC2 | 31.1
CC(=O)c1ccc(N(/C=C/C(=O)C(F)(F)F)CC(=O)c2ccc(Cl)c(Cl)c2)cc1 | 28.8

# input Retrieve TGI measured for "C/C(=N/NC(=S)Nc1cccc(C)c1)c1ccccn1" and print it.
# output 6.61

# input Retrieve TGI measured for "CC1=C2[C@@H](CC1)[C@]1(C)O[C@@](C(C)C)(C[C@H]1OC(=O)[C@H](C)O)[C@H]2OC(=O)/C=C/c1ccccc1" and print it.
# output 24.6

# input Retrieve TGI measured for COc1ccc(CN2CCCC(C(=O)c3ccc(C(F)(F)F)cc3)C2)c(O)c1 (configuration not stated) and print it.
# output 89.3

# input Retrieve TGI measured for "O=C(O[C@H](/C=C/c1ccccc1)P1(=O)N(Cc2ccccc2)[C@@H]2CCCC[C@H]2N1Cc1ccccc1)c1ccccc1" and print it.
# output 9.68
